- Tested on: TANOUE;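 further: ALL cell lines in 384-well plates, five doses spanning 10,000-fold, each plate scaled between vehicle and 100 µmol/L benzalkonium chloride controls, sDSS an adapted area-under-curve metric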
- measurement.notes: selective drug sensitivity score (sDSS, relative to normal bone marrow) (sDSS (score)); higher = more potent and effective on the cell line relative to normal bone marrow cells
- setup.conditions: 72 h
Please assign a class to every record based on measured selective drug sensitivity score, with ranges bottom end: < -8; midrange: ≥ -8 and < -0.6; top end: ≥ -0.6

| compound | assayed.target | category.label |
| --- | --- | --- |
| O=C(O)c1ccc(CN2CCC(CN[C@@H]3C[C@H]3c3ccccc3)CC2)cc1 (top concentration 100000 nM) | TANOUE | midrange |
| N.N.[Cl][Pt][Cl] [Cisplatin] (top concentration 100000 nM) | TANOUE | midrange |
| CCc1c(C(=O)C(N)=O)c2c(OCC(=O)O)cccc2n1Cc1ccccc1 [Varespladib] (top concentration 10000 nM) | TANOUE | midrange |
| CCS(=O)(=O)N1CCN(c2ccc(Nc3ncc(C(N)=O)c(NC4CC4)n3)cc2)CC1 [Cerdulatinib] (top concentration 10000 nM) | TANOUE | bottom end |
| O=C(O)CC[C@H]1CC[C@@](c2cc(F)ccc2F)(S(=O)(=O)c2ccc(Cl)cc2)CC1 [MK-0752] (top concentration 1000 nM) | TANOUE | top end |
| C=CC[C@@H]1/C=C(\C)C[C@H](C)C[C@H](OC)[C@H]2O[C@@](O)(C(=O)C(=O)N3CCCC[C@H]3C(=O)O[C@H](/C(C)=C/[C@@H]3CC[C@@H](O)[C@H](OC)C3)[C@H](C)[C@@H](O)CC1=O)[C@H](C)C[C@@H]2OC [Tacrolimus] (top concentration 10000 nM) | TANOUE | midrange |
| Nc1cc(F)ccc1NC(=O)c1ccc(CNC(=O)/C=C/c2cccnc2)cc1 [Tucidinostat] (top concentration 10000 nM) | TANOUE | bottom end |
| COC(=O)N[C@@H](C)CNc1nccc(-c2cn(C(C)C)nc2-c2cc(Cl)cc(NS(C)(=O)=O)c2F)n1 [Encorafenib] (top concentration 1000 nM) | TANOUE | top end |
| CC1(C)C(C(=O)Nc2ccc(S(=O)(=O)c3ccc(NC(=O)C4C(C)(C)C4(C)C)cc3)cc2)C1(C)C [BRD7116] (top concentration 10000 nM) | TANOUE | top end |
| Nc1ccccc1NC(=O)c1ccc(CNC(=O)OCc2cccnc2)cc1 [Entinostat] (top concentration 10000 nM) | TANOUE | bottom end |
| CNc1ncc2cc(-c3cc(NC(=O)NCCC(C)(C)C)c(F)cc3C)c(C)nc2n1 (top concentration 10000 nM) | TANOUE | midrange |
